Origin of measurements: paper PMC8809517

- TESTED_TARGET: T1, GFP-9S library array, motif 4 ND N98C;D124T (synthetic construct, N98C;D124T)
- T1 chain: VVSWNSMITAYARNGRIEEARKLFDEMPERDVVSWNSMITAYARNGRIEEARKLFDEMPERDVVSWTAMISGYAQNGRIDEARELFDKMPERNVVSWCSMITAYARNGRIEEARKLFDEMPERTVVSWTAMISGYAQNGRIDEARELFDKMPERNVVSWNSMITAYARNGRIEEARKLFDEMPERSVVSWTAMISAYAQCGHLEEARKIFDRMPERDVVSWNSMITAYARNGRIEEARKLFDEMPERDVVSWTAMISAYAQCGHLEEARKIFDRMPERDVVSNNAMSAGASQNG
- RUN_DESCRIPTION: high-throughput RNA pulldown from lysate on Ni-NTA beads; HRP: 50 mM Tris pH 8, 150 mM NaCl, 1 mM beta-mercaptoethanol, 50 ug/ml BSA, 3 ug/ml yeast RNA, 0.5% heparin; ITC and FP: Tris pH 8, 200 mM KCl, 5% glycerol; MST: 50 mM Tris pH 8, 200 mM NaCl, 1 mM DTT, BSA, heparin, 0.05% Tween 20
- MEASUREMENT_PARAMETERS: tags: N-terminal His-eGFP; label: 5' IRDye 800CW
Give pKd for every item shown.
One number for each entry, as −log10 of the molar value.

• AUUAUACGUGA (ssRNA) [IR-rpoA-U] = 6.81

Note: attention shifts to another entry.
If you can, please state the reported pKd value of AUUAAACGUGA (ssRNA) [IR-rpoA-A] . 6.82
